Exercise: for every item that follows, state its recorded Kd.
TESTED ON: T1, GFP-9S library array, motif 4 ND N98V;D124M (synthetic construct, N98V;D124M)
T1 chain: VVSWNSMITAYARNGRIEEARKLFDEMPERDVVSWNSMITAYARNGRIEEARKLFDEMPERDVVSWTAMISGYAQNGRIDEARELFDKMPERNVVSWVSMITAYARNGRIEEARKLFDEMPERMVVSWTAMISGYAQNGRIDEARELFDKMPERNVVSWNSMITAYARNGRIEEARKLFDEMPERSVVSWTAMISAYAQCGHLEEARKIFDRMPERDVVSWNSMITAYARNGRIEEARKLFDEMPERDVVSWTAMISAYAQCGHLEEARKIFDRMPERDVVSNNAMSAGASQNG
ASSAY TEXT: high-throughput RNA pulldown from lysate on Ni-NTA beads; HRP: 50 mM Tris pH 8, 150 mM NaCl, 1 mM beta-mercaptoethanol, 50 ug/ml BSA, 3 ug/ml yeast RNA, 0.5% heparin; ITC and FP: Tris pH 8, 200 mM KCl, 5% glycerol; MST: 50 mM Tris pH 8, 200 mM NaCl, 1 mM DTT, BSA, heparin, 0.05% Tween 20
SETUP CONDITIONS: tags: N-terminal His-eGFP; label: 5' Cy5
State just the number; it will be interpreted in nM.

Fill in: Kd of AUUAGACGUGA (ssRNA) [Cy5-rpoA-G] is ___
155

Try AUUACACGUGA (ssRNA) [Cy5-rpoA] next.
148
